- Target: Cytochrome P450 1A2 (Homo sapiens, UniProt P05177)
- Sequence (P05177 whole entry): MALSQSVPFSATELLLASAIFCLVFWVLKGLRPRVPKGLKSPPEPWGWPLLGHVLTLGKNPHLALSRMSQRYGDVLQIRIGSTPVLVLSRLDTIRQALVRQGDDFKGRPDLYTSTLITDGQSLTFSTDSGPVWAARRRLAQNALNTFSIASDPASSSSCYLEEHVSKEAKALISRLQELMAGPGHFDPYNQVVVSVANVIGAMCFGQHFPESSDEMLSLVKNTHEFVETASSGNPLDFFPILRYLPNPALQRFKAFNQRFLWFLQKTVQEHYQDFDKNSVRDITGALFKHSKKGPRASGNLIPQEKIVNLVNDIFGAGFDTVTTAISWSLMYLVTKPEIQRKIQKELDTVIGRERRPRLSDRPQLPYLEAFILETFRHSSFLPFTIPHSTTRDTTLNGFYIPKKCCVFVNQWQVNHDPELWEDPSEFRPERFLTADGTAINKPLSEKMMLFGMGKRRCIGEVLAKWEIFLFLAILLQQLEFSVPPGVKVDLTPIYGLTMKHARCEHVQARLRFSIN
- Assay summary: Inhibition of CYP1A2 (unknown origin)
- Type: ADME
Measurement name: IC50 (nM)
Provide the reading as a plain figure in nM.

Request: State the recorded IC50 for this entry: Nc1ccc2[nH]c3c(c2c1)CCn1c-3nc2ccccc2c1=O
Response: 2580

====

inhibition at 0.5 h, 0.1 µM values by entry
- Target: CYP1B1 (Homo sapiens)
- Sequence (Q16678 whole entry): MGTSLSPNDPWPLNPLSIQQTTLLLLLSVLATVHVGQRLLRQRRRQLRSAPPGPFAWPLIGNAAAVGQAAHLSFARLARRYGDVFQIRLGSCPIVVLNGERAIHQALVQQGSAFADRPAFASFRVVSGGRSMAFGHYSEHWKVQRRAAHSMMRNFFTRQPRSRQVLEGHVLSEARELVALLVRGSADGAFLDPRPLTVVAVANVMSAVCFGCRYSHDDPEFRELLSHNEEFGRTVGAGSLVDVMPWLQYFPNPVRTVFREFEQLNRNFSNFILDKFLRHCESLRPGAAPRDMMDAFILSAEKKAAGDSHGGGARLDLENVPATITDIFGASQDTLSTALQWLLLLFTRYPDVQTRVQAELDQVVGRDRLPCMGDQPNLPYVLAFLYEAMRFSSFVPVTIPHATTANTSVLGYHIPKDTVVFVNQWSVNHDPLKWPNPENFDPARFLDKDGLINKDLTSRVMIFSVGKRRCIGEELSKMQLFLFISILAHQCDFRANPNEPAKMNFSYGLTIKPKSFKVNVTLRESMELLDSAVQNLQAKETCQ
- Assay summary: Inhibition of recombinant human CYP1B1 assessed as inhibition ratio at 100 nM using 7-ethyl-0-resorufin as substrate incubated for 30 mins in presence of NADPH by EROD assay relative to control
- Study conditions: recombinant human CYP1B1, probe 7-ethyl-0-resorufin
Number only, in %; omit the unit.

Example entries begin here.
>>> df
                            smiles_repr                 target  unit_spec  value_measured
0  Clc1cc(Nc2nc(-c3nccs3)cs2)cc(Cl)c1Cl  CYP1B1 (Homo sapiens)          %             100
1        COc1ccc(Nc2nc(-c3nccs3)cs2)cc1  CYP1B1 (Homo sapiens)          %              78

Request: Please give the measured inhibition at 0.5 h, 0.1 µM for this compound: COc1ccccc1Nc1nc(-c2nccs2)cs1
Response: 60

Request: Lookup c1cc(Nc2nc(-c3nccs3)cs2)cc(-n2ccnc2)c1
Response: 92.4

Request: // query: CC(=O)Nc1cccc(Nc2nc(-c3nccs3)cs2)c1
Response: 93.7

Request: Check Fc1ccc(Nc2nc(-c3nccs3)cs2)nc1 too.
Response: 75

Request: # repeat for O=[N+]([O-])c1cccc(Nc2nc(-c3nccs3)cs2)c1
Response: 57.6

Request: Again, but for c1ccc2cc(Nc3nc(-c4nccs4)cs3)ccc2c1
Response: 80
